# credit: ChEMBL document CHEMBL4364288

# reported inhibition; entries follow
Tested on: Sf21
Settings: Homo sapiens, at 20 µM
Description: Inhibition of recombinant N-terminal GST-tagged human BRAF (433-726 residues) expressed in baculovirus infected sf21 insect cells/recombinant human full length N-terminal GST-tagged MEK1 expressed in Escherichia coli cascading pathway assessed as reduction in MEK1 phosphorylation at 20 uM incubated for 2 hrs by HTRF assay relative to control
State just the number; it will be interpreted in %.

Cc1ccc(S(=O)(=O)Nc2cc(S(=O)(=O)CC(=O)O)cc3c2[nH]c2ccccc23)cc1
45
CC(=O)Nc1ccc(S(=O)(=O)Nc2cc(OCc3nnc(C)o3)cc3c2[nH]c2ccccc23)cc1
50.7
CCOC(=O)COc1cc(NS(=O)(=O)c2ccc(C)cc2)c2[nH]c3ccccc3c2c1
56.6
CC(=O)Nc1cccc(S(=O)(=O)Nc2cc(OCc3nnc(C)o3)cc3c2[nH]c2ccccc23)c1
29.5

Task: Which inhibition is reported for this compound? `CCOC(=O)CSc1cc(NS(=O)(=O)c2ccc(C)cc2)c2[nH]c3ccccc3c2c1`
Result: 45.2
